The values you see were collected from patent US6737383B1.

The reader will find reported Plant response rating, B. signalgrass values listed item by item below.
tested on: surinam grass; experiment: Test B pre/postemergence surinam grass; format: in vivo, Brachiaria decumbens; details: Rate 250 g/ha, Postemergence; scale of 0 to 10 where 0 is no effect and 10 is complete control
Respond using a number only.

[ask] Give Plant response rating, B. signalgrass for this entry on surinam grass: CC(=O)C(C)n1c(=O)on(C(=O)N(c2ccccc2)C(C)C)c1=O (stereo not drawn) [Compound 576]
[reply] 0

[ask] Give Plant response rating, B. signalgrass for this entry on surinam grass: CC(Cl)=CCn1c(=O)on(C(=O)N(c2ccccc2)C(C)C)c1=O [Compound 573]
[reply] 0

[ask] Give Plant response rating, B. signalgrass for this entry on surinam grass: CCOCn1c(=O)on(C(=O)N(c2ccccc2)C(C)C)c1=O [Compound 563]
[reply] 5

[ask] Give Plant response rating, B. signalgrass for this entry on surinam grass: CC(C)N(C(=O)n1oc(=O)n(CCC2OCCO2)c1=O)c1ccc(Cl)cc1 [Compound 531]
[reply] 0

[ask] Give Plant response rating, B. signalgrass for this entry on surinam grass: CCN(CC)C(=O)n1oc(=O)n(C2CC2)c1=O [Compound 297]
[reply] 0

[ask] Give Plant response rating, B. signalgrass for this entry on surinam grass: CC(C)N(C(=O)n1oc(=O)n(CC2CC2)c1=O)c1ccccc1 [Compound 568]
[reply] 7
